targetUnderTest: Ephrin type-A receptor 1 (Homo sapiens) (UniProt P21709)
testSettings: at 10 µM
metricName: residual activity (%)
Give just the numeric value; % need not be written.

Examples with their reported residual activity follow.
COc1cc2ncc(-c3ccccc3)nc2cc1OC | 94
Oc1n[nH]c2nnc(-c3c(-c4ccccc4)nn4ccccc34)cc12 | 79
O=C1NC(=O)/C(=C/c2ccc3c(c2)OC(F)(F)O3)S1 | 96
Nc1cccc(-c2cc3c(Oc4cccc(O)c4)ncnc3[nH]2)c1 | -1
N#Cc1cnc2cnc(NCc3cccnc3)cc2c1Nc1ccc(F)c(Cl)c1 | 79
Cc1cncc2cccc(S(=O)(=O)N3CCCN(C(=O)CN)C[C@H]3C)c12 | 7
CCOc1cc2ncnc(Nc3cccc(Br)c3)c2cc1OCC | 4
O=Nc1c(-c2c(O)[nH]c3ccccc23)[nH]c2ccccc12 | 61
O=C(Nc1cccc(Nc2cc(Nc3cccc(C(F)(F)F)c3)ncn2)c1)C1CC1 | 90
Nc1ccc2ncnc(NCCc3ccc(Oc4ccccc4)cc3)c2c1 | 87

Retrieve residual activity measured for `CCN(CC)CCCCN1c2ccccc2Oc2ccc(Cl)cc21` and print it.
124

Please give the documented residual activity of `CN(C)c1ccc(/C=C2\C(=O)Nc3ccccc32)cc1`
102

Could you please provide reported residual activity for `CC(C)n1cnc2/c(=N/c3cccc(Cl)c3)nc(NCCO)[nH]c21` ? Thanks!
42

Input `Nc1n[nH]c2nnc(-c3c(-c4ccccc4)nn4ccccc34)cc12` , output reported residual activity.
66

Specify residual activity for `O=c1c2ccccc2[nH]c(=S)n1CCN1CCC(=C(c2ccc(F)cc2)c2ccc(F)cc2)CC1` and stop.
89

Please list residual activity recorded for the compound `COc1cc2ncnc(Nc3ccc(O)c(Br)c3)c2cc1OC`
8

Consider the compound `c1ccc(-c2n[nH]cc2-c2ccnc3ccccc23)nc1` and give its recorded residual activity.
90

Please look at this compound and report its residual activity: `O=C1Nc2cc(Br)ccc2/C1=C1/Nc2ccccc2/C1=N\O`
92

Provide only the value of recorded residual activity for `Cc1cccc(-c2[nH]c(C(C)(C)C)nc2-c2ccc3c(c2)OCO3)n1`
106

Give the value of residual activity reported for the following: `CC(C)n1cnc2c(NCc3ccccc3)nc(NCCCO)nc21`
91

Return residual activity for the following compound: `CCN(CC)C(=O)c1ccc(Nc2nc(OCC3CCCCC3)c3nc[nH]c3n2)cc1`
8

Identify measured residual activity associated with `COc1cccc(-c2cc(=O)c3ccccc3o2)c1N`
92

Answer with reported residual activity of `CO[C@H]1C[C@@H]2CC[C@@H](C)[C@@](O)(O2)C(=O)C(=O)N2CCCC[C@H]2C(=O)O[C@H]([C@H](C)C[C@@H]2CC[C@@H](O)[C@H](OC)C2)CC(=O)[C@H](C)/C=C(\C)[C@@H](O)[C@@H](OC)C(=O)[C@H](C)C[C@H](C)/C=C/C=C/C=C/1C`
65

Please give the documented residual activity of `CO[C@@H]1[C@H](N(C)C(=O)c2ccccc2)C[C@H]2O[C@]1(C)n1c3ccccc3c3c4c(c5c6ccccc6n2c5c31)C(=O)NC4`
81

Give reported residual activity value for `COc1ccc(C(=O)Nc2sc3c(c2C(N)=O)CCCC3)cc1OC`
111

Return residual activity for the following compound: `O=C1Nc2ccc(Br)cc2/C1=C\c1cc2c([nH]1)CCCC2`
105

Give me measured residual activity, please, for this compound: `COc1ccc(OC)c2c(=S)c3ccccc3[nH]c12`
88

Note down residual activity recorded for `Oc1c2ccccc2c2c3c(cccc13)N=N2`
42

----------
Let's look at some molecules and their measured residual activity.
targetUnderTest: Proto-oncogene tyrosine-protein kinase ROS (Homo sapiens) (UniProt P08922)
Sequence (P08922 whole entry): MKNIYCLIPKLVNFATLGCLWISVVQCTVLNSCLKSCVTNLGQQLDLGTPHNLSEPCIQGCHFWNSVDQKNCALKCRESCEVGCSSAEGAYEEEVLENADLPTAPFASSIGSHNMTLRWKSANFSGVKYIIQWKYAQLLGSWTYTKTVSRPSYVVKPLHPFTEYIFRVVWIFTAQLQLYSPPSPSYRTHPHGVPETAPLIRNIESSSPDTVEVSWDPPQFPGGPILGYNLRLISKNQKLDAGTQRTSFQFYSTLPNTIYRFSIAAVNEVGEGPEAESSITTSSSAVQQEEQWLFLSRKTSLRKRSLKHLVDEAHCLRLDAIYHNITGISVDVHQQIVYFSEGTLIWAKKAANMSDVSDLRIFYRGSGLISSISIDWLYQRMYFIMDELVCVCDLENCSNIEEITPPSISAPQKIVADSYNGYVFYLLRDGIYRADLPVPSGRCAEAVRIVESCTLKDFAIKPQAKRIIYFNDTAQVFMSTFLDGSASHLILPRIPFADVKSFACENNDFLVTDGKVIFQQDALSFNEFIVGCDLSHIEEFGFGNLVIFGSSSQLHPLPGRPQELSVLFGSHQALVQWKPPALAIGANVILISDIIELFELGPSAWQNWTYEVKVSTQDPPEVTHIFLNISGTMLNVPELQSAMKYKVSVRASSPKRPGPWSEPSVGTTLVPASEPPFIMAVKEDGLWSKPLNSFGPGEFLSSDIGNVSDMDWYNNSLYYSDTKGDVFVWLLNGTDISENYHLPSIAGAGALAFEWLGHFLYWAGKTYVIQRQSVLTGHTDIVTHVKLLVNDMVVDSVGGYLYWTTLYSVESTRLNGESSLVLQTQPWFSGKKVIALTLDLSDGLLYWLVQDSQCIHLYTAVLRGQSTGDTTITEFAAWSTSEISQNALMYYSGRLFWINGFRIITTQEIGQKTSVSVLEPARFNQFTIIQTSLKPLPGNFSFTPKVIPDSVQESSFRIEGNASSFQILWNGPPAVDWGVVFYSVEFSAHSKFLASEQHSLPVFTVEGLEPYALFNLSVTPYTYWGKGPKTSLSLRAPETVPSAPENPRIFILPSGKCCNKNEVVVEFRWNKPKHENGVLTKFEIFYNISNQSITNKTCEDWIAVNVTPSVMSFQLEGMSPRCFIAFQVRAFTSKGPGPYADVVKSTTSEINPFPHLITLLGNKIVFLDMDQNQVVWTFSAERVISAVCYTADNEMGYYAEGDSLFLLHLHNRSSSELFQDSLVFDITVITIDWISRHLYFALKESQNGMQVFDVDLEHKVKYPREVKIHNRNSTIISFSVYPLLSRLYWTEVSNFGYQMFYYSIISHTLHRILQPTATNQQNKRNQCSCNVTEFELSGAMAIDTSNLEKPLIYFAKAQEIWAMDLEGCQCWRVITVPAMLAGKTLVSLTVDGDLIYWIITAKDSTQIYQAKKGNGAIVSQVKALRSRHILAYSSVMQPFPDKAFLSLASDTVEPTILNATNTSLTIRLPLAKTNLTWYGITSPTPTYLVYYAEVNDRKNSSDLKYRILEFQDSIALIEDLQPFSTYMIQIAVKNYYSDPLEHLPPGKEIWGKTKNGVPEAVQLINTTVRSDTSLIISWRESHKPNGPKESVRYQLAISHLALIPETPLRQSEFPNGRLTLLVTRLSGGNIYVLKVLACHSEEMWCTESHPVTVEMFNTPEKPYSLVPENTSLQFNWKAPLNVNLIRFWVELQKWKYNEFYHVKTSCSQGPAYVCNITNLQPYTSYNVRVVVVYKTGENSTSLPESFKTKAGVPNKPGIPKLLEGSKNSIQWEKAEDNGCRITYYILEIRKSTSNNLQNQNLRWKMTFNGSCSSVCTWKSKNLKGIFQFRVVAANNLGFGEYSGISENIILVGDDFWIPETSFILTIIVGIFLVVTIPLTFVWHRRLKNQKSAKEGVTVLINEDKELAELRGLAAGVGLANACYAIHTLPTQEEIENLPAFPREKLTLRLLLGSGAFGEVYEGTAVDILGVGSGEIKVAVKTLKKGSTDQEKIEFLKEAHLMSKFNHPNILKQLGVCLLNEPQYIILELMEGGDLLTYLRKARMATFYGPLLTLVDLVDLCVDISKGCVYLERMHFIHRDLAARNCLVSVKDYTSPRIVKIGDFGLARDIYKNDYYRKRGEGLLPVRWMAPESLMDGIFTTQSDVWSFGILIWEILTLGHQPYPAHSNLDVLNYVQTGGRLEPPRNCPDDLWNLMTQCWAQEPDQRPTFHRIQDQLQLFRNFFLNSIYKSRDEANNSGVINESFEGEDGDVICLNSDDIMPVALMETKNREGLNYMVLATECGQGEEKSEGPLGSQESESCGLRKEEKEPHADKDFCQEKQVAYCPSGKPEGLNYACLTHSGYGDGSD
testSettings: at 10 µM
Express your answer in %, writing the number without its unit.

The following molecules have reported results that may help.
CC(C)n1cnc2c(NCc3ccccc3)nc(NCCCO)nc21 | 93
O=C(O)c1ccc2c3c1cccc3c(=O)n1c3ccccc3nc21 | 101
Cc1cccc(-c2[nH]c(C(C)(C)C)nc2-c2ccc3c(c2)OCO3)n1 | 94
O=C1NC(=O)/C(=C/c2ccc3c(c2)OC(F)(F)O3)S1 | 108
O=C1Nc2ccc(Br)cc2/C1=C\c1cc2c([nH]1)CCCC2 | 80
NC(=O)c1ccc2[nH]c(-c3ccc(Oc4ccc(Cl)cc4)cc3)nc2c1 | 84

Given `O=[N+]([O-])c1ccc(-c2nc(-c3ccc(F)cc3)c(-c3ccncc3)[nH]2)cc1` , respond with its residual activity.
91

Tell me its residual activity given `CC[n+]1c(/C=C/N(C)c2ccccc2)n(-c2ccccc2)c2ccc(-c3nc4ccccc4s3)cc21` as the entry.
102

----------
targetUnderTest: Ribosomal protein S6 kinase alpha-4 (Homo sapiens) (UniProt O75676)
Sequence (O75676 whole entry, looked up): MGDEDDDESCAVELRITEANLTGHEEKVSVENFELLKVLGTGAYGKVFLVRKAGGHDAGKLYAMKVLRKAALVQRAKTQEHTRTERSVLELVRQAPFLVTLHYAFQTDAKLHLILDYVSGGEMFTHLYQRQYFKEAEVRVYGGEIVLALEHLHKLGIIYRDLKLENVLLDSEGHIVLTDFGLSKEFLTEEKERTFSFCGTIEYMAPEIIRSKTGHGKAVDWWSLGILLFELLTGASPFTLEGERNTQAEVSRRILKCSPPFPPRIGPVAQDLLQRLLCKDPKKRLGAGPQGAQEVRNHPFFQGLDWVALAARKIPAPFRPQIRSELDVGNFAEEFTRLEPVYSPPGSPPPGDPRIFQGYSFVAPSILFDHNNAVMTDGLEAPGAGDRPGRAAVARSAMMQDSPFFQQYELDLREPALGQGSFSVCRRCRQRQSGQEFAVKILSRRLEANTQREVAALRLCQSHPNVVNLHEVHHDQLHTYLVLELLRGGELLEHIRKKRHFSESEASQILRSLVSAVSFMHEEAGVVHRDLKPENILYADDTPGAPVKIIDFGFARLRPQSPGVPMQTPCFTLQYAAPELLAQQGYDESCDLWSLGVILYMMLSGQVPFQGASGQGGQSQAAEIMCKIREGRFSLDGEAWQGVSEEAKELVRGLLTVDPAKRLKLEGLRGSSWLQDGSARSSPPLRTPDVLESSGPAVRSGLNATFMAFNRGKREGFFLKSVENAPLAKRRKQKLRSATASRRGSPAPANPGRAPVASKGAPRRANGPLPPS
testSettings: at 10 µM
Property: residual activity; scope: individual compounds
Answer format: numeric, % implied, no suffix.

# example entries with known answers
NC(=O)c1ccc2[nH]c(-c3ccc(Oc4ccc(Cl)cc4)cc3)nc2c1 | 102
c1ccc(-c2n[nH]c3c2oc2ccccc23)cc1 | 70
CO[C@@H]1[C@H](N(C)C(=O)c2ccccc2)C[C@H]2O[C@]1(C)n1c3ccccc3c3c4c(c5c6ccccc6n2c5c31)C(=O)NC4 | 8
Cc1cccc(-c2[nH]c(C(C)(C)C)nc2-c2ccc3c(c2)OCO3)n1 | 104
COc1cc2ncc(-c3ccccc3)nc2cc1OC | 88

Report residual activity under test system Ribosomal protein S6 kinase alpha-4 (Homo sapiens) (UniProt O75676) for `O=Nc1c(-c2c(O)[nH]c3ccccc23)[nH]c2ccccc12` .
4

Please respond with reported residual activity (system Ribosomal protein S6 kinase alpha-4 (Homo sapiens) (UniProt O75676)) for `c1ccc(-c2n[nH]cc2-c2ccnc3ccccc23)nc1` .
108

----------
targetUnderTest: Insulin receptor (Homo sapiens) (UniProt P06213)
testSettings: at 10 µM
Classify as follows. Reported residual activity greater than or equal to 70%: t. Reported residual activity below: f.

Here are 4 compounds together with their reported answers.
Cc1ccc(S(=O)(=O)/C=C/C#N)cc1 | t
Cn1nc2c3c(cccc31)C(=O)c1ccccc1-2 | f
COc1cccc(-c2cc(=O)c3ccccc3o2)c1N | t
Cn1cnc2cc3c(Nc4cccc(Br)c4)ncnc3cc21 | t

API: the following record is the query input.
Test whether the compound `Nc1n[nH]c2nnc(-c3c(-c4ccccc4)nn4ccccc34)cc12` records residual activity of 70% or higher.
f

----------
targetUnderTest: Serine/threonine-protein kinase NLK (Homo sapiens) (UniProt Q9UBE8)
Sequence (Q9UBE8 whole entry): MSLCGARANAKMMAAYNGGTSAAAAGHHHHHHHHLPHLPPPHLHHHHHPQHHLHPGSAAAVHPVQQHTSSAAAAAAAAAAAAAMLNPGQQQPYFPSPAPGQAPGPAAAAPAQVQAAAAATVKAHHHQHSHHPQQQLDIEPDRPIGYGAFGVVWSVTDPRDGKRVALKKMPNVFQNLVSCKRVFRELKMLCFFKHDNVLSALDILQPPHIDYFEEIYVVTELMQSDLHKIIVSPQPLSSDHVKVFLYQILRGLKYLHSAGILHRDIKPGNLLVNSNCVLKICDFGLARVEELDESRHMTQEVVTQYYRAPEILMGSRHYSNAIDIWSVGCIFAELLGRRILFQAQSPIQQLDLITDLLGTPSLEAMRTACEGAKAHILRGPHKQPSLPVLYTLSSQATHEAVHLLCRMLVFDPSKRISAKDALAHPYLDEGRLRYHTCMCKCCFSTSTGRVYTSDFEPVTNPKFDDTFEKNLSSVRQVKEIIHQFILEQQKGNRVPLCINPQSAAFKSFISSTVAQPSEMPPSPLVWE
testSettings: at 10 µM
residual activity values, listed per item
Give the number; % is assumed, so skip it.

Cn1nc2c3c(cccc31)C(=O)c1ccccc1-2 | 87
O=C1NC(=O)c2c1c1c3ccccc3[nH]c1c1[nH]c3cc(Br)ccc3c21 | 93
O=C1Nc2cc(Br)ccc2/C1=C1/Nc2ccccc2/C1=N\O | 85

# ---- query molecule ----
Please report the measured residual activity for `Nc1nc(Nc2ccc(S(N)(=O)=O)cc2)nn1C(=S)Nc1c(F)cccc1F`
3

----------
targetUnderTest: TGF-beta receptor type-1 (Homo sapiens) (UniProt P36897)
Sequence (P36897 whole entry): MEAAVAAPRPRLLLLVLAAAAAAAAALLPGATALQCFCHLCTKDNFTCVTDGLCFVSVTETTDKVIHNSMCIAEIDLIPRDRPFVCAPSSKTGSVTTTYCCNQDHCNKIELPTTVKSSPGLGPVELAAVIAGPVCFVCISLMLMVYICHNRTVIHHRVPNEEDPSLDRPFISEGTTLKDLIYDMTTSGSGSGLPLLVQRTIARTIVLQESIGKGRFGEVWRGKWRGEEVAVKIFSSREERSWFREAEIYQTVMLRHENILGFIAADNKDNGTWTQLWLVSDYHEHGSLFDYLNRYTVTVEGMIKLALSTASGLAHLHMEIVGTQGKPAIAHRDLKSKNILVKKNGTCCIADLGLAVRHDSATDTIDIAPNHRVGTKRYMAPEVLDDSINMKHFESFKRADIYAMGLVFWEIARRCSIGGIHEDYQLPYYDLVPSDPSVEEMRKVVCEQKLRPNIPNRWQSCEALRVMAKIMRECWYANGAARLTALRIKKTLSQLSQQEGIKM
testSettings: at 10 µM
Description: Millipore: Percentage of residual kinase activity of TGFBR1 at 10uM relative to control. Control inhibitor: Phosphoric acid* at 0.3uM. Buffer: 8 mM MOPS pH 7.0, 0.2 mM EDTA, 1 mM MnCl2
Values of residual activity strictly less than 90% map to satisfied, and values of at least 90% map to not satisfied.

CC(C)n1cnc2c(NCc3ccccc3)nc(NCCCO)nc21 | satisfied

Lab note: confirm whether the reported residual activity for this molecule is below 90%, equality not counting. molecule: `Oc1n[nH]c2nnc(-c3c(-c4ccccc4)nn4ccccc34)cc12`
satisfied

Check if residual activity falls below 90% for `CCOc1cc2ncnc(Nc3cccc(Br)c3)c2cc1OCC` .
satisfied

A record lists `CCN(CC)CCCCN1c2ccccc2Oc2ccc(Cl)cc21` . Is its residual activity below 90%?
not satisfied

----------
targetUnderTest: BDNF/NT-3 growth factors receptor (Homo sapiens) (UniProt Q16620)
Sequence (Q16620 32-822 limits assumed): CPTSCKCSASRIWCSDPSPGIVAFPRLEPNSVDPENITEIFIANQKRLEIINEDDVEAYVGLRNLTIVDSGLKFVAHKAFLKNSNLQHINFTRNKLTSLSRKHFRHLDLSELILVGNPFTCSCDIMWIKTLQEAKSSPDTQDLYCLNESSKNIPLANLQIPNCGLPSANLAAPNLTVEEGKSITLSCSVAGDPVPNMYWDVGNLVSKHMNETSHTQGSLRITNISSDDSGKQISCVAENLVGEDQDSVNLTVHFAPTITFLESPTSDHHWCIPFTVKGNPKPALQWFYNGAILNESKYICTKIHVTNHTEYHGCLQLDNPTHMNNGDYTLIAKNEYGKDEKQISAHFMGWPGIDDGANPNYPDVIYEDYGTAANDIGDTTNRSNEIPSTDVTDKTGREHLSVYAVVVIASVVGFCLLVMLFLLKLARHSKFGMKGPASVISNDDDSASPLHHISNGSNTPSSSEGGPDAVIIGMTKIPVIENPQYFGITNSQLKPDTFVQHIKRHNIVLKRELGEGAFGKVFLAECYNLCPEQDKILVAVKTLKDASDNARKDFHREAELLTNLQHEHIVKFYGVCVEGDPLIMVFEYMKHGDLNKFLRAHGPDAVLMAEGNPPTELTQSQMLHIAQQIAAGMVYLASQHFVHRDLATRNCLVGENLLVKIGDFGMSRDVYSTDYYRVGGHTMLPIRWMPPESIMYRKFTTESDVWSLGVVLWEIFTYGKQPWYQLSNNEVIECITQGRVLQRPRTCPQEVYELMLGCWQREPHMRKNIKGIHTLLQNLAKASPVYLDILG
testSettings: at 1 µM
metricName: residual activity (%)
The reply should contain only the number, in %.

CN(C)CCCn1cc(C2=C(c3c[nH]c4ccccc34)C(=O)NC2=O)c2ccccc21 | 36

Please look at the following compound next.
Output reported residual activity of the compound `Cc1nc(-c2ccccc2)c(-c2ccncc2)o1` on BDNF/NT-3 growth factors receptor (Homo sapiens) (UniProt Q16620).
55

----------
Catalogue of residual activity values
targetUnderTest: Casein kinase I isoform gamma-1 (Homo sapiens)
testSettings: at 1 µM
Description: Millipore: Percentage of residual kinase activity of CSNK1G1 at 1uM relative to control. Control inhibitor: Phosphoric acid* at 0.3uM. Buffer: 8 mM MOPS pH 7.0, 0.2 mM EDTA
Numbers only here, please. The scale is %.

Cn1nc2c3c(cccc31)C(=O)c1ccccc1-2 | 99
COc1cc2ncnc(N3CCN(C(=O)Nc4ccc(Oc5ccccc5)cc4)CC3)c2cc1OC | 88
O=c1cc(-c2cccc3c2Sc2ccccc2S3)oc(N2CCOCC2)c1 | 101
C[C@@H](N)[C@H]1CC[C@H](C(=O)Nc2ccncc2)CC1 | 102
CN(C)c1ccc(/C=C2\C(=O)Nc3ccccc32)cc1 | 91

Could you now look at the following compound, please?
Specify reported residual activity for the compound shown: `CC(C)n1cnc2/c(=N/c3cccc(Cl)c3)nc(NCCO)[nH]c21`
8
